- Subject Of Test: phospho p-38 alpha kinase (Homo sapiens)
- Construct: purchased Panvera
- Sequence (Q16539 whole entry): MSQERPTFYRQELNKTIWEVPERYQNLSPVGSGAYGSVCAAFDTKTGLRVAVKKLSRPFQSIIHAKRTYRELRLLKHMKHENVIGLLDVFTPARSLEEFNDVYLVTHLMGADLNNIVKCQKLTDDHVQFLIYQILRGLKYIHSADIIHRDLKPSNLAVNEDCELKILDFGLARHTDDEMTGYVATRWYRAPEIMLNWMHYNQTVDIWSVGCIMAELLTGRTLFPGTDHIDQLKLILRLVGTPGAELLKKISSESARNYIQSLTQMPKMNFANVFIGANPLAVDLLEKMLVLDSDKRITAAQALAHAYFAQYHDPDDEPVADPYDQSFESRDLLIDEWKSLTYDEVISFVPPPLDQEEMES
- Experiment Notes: P-38 alpha kinase assay (spectrophotometric, pyruvate kinase/lactate dehydrogenase coupled)
- Format: biochemical
- Condition Label: Table 5; assay not named; read-out: uM
- Description: In this assay, the oxidation of NADH was continuously measured spectrophometrically. […] The reaction was initiated by adding ATP. The absorption at 340 nm was monitored continuously for up to 4 hours at 30° C. on Polarstar Optima plate reader (BMG). The kinase activity (reaction rate) was calculated from the slope at the time frame from 1.5 h to 2 h. For inhibition determinations, test compounds were incubated with the reaction mixture for ˜5 min before adding ATP to start the reaction. […]
Exercise: state measured IC50 for each of the compounds provided.
Report the value in µM with no unit label.

What does the record list as IC50 for Cn1c(=O)c(-c2cccc(NC(=O)Nc3cc(C4CCCC4)nn3-c3cccc(CC(N)=O)c3)c2)cc2cncnc21 [Example 514] ?
0.57

What does the record list as IC50 for CC(C)(C)c1cc(NC(=O)Nc2cccc(Cl)c2Cl)n(-c2cccc(C(=O)O)c2)n1 [Example 374] ?
0.037

What does the record list as IC50 for O=C(Nc1cccc(Cl)c1Cl)Nc1cc(-c2cccs2)nn1-c1cccc(CO)c1 [Example 486] ?
0.057

What does the record list as IC50 for C=C1NS(=O)(=O)N(Cc2cccc(-n3nc(C(C)(C)C)cc3NC(=O)Nc3cccc(Cl)c3Cl)c2)C1=O [Example 511] ?
0.024

----------
- Subject Of Test: B-Raf(V599E) kinase (Homo sapiens, UniProt P15056, V600E)
- Sequence (P15056 433-726 V600E): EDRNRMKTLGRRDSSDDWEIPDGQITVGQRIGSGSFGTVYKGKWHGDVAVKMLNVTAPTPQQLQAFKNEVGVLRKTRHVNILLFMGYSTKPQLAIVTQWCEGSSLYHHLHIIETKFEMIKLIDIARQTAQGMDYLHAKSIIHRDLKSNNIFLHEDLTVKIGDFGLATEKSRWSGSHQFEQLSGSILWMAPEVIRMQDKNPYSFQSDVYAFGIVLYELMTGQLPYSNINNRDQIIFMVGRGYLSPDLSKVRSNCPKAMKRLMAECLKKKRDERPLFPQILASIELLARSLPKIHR
- Experiment Notes: biochemical
- Condition Label: Method B2; construct 2
Exercise: state measured IC50 for each of the compounds provided.
Report the value in µM with no unit label.

Please state recorded IC50 (tested on B-Raf(V599E) kinase (Homo sapiens, UniProt P15056, V600E)) of O=C(O)Cc1cccc(-n2nc(-c3ccsc3)cc2NC(=O)Nc2cccc(Cl)c2Cl)c1 [Example 436]
3.7

Please state recorded IC50 (tested on B-Raf(V599E) kinase (Homo sapiens, UniProt P15056, V600E)) of Cc1ccc(NC(=O)Nc2cc(C(C)(C)C)nn2-c2cccc(CC(=O)NCC(O)CO)c2)cc1Nc1nccc(-c2cccnc2)n1 (centres unmarked) [Example 517]
0.075

----------
- Subject Of Test: KDR kinase (Homo sapiens, UniProt P35968, DEL940-989/E990V)
- Sequence (P35968 with tags, fused parts or gaps DEL940-989/E990V): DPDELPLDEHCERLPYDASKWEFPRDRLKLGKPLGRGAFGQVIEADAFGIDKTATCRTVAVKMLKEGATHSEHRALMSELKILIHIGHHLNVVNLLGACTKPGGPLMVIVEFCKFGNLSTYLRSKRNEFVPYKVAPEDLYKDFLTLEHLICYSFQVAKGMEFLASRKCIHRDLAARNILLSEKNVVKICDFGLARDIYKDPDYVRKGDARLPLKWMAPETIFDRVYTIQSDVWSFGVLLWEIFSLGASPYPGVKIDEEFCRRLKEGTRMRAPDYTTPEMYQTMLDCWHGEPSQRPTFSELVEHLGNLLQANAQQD
- Experiment Notes: KDR kinase assay K1
- Type: biochemical
- Condition Label: read-out: Results, % @ concentration μM, Method K1; @ 10 μM
Exercise: state measured inhibition at 10 µM for each of the compounds provided.

Please state recorded inhibition at 10 µM (tested on KDR kinase (Homo sapiens, UniProt P35968, DEL940-989/E990V)) of CC(C(=O)O)c1ccc(-n2nc(-c3cccs3)cc2NC(=O)Nc2cccc(Cl)c2Cl)cc1 (centres unmarked)
33%

Please state recorded inhibition at 10 µM (tested on KDR kinase (Homo sapiens, UniProt P35968, DEL940-989/E990V)) of O=C(Nc1ccc(F)c(F)c1F)Nc1cc(-c2cccs2)nn1-c1cccc(CO)c1
82%

Please state recorded inhibition at 10 µM (tested on KDR kinase (Homo sapiens, UniProt P35968, DEL940-989/E990V)) of O=C(Cc1cccc(-n2nc(-c3ccccc3)cc2NC(=O)Nc2cccc(Cl)c2Cl)c1)NCCO
27%

Please state recorded inhibition at 10 µM (tested on KDR kinase (Homo sapiens, UniProt P35968, DEL940-989/E990V)) of NC(=O)Cc1cccc(-n2nc(-c3cccc(F)c3)cc2NC(=O)Nc2cccc(Cl)c2Cl)c1
33%

Please state recorded inhibition at 10 µM (tested on KDR kinase (Homo sapiens, UniProt P35968, DEL940-989/E990V)) of CC(C(N)=O)c1cccc(-n2nc(-c3ccsc3)cc2NC(=O)Nc2cccc(Cl)c2Cl)c1 (centres unmarked)
34%

Please state recorded inhibition at 10 µM (tested on KDR kinase (Homo sapiens, UniProt P35968, DEL940-989/E990V)) of CC(C)(C)c1cc(NC(=O)Nc2ccc(F)cc2F)n(-c2ccc(CC(=O)O)cc2)n1
43%

Please state recorded inhibition at 10 µM (tested on KDR kinase (Homo sapiens, UniProt P35968, DEL940-989/E990V)) of O=C(Nc1cccc(Cl)c1Cl)Nc1cc(-c2ccccc2F)nn1-c1cccc(CO)c1
79%

Please state recorded inhibition at 10 µM (tested on KDR kinase (Homo sapiens, UniProt P35968, DEL940-989/E990V)) of O=C(Cc1cccc(-n2nc(-c3cccs3)cc2NC(=O)Nc2cccc(Cl)c2Cl)c1)NCCO
31%
